Data origin, for the record: patent US20220153851A1

# targetUnderTest: T1, hCSF1R ECD.506 (human, UniProt P07333 20-506)
# T1 construct: also called human CSF1R ECD
# T1 sequence (P07333 20-506): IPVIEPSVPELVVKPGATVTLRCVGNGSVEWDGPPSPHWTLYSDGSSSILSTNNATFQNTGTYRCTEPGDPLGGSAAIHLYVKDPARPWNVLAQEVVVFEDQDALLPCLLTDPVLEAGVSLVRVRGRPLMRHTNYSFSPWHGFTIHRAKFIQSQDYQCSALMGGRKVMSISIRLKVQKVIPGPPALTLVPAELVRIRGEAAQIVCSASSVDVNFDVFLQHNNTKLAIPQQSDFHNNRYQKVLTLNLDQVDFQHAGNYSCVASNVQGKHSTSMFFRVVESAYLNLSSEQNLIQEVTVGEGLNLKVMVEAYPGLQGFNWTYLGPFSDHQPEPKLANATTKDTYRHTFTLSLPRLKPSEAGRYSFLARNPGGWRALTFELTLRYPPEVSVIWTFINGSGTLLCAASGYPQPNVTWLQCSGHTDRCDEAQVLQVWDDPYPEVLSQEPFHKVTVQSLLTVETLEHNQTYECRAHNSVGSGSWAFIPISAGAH
# experimentDescription: SPR Biacore T100, antibody captured on anti-human IgG, hCSF1R ECD.506 as analyte, 1:1 model
# Description: The kₐ, kd, and KD for binding to human CSF1R ECD was determined for each of the humanized antibodies as follows. Binding kinetics of anti-CSF1R humanized antibodies to CSF1R ECD was determined using Biacore T100 Surface Plasmon Resonance (SPR) (GE Healthcare Life Sciences, Piscataway, N.Y.). […]
reportedProperty: Kd
Please give the number followed by its unit.

Some entries whose results are on file:
h0311-L1H2 (antibody, human IgG4 S228P, kappa, V domains shown, also called Ab16; huAb 0311-L1H2) VH: QVQLVQSGAEVKKPGSSVKVSCKASGYIFTDYNMHWVRQAPGQGLEWMGEINPNNGVVVYNQKFKGTTTLTVDKSTSTAYMELSSLRSEDTAVYYCTRALYHSNFGWYFDSWGQGTLVTVSS VL: DIVLTQSPATLSLSPGERATLSCKASQSVDYDGDSHMNWYQQKPGQAPRLLIYTASNLESGIPARFSGSGSGADFTLTISSLEPEDFAVYYCQQGNEDPWTFGQGTKVEIKR	400 pM
h0311-L0H1 (antibody, human IgG4 S228P, kappa, V domains shown, also called Ab13; huAb 0311-L0H1) VH: QVQLVQSGAEVKKPGSSVKVSCKASGYIFTDYNMHWVRQAPGQGLEWMGEINPNNGVVVYNQKFKGRVTITVDKSTSTAYMELSSLRSEDTAVYYCTRALYHSNFGWYFDSWGQGTLVTVSS VL: EIVLTQSPATLSLSPGERATLSCKASQSVDYDGDSHMNWYQQKPGQAPRLLIYTASNLESGIPARFSGSGSGTDFTLTISSLEPEDFAVYYCQQGNEDPWTFGQGTKVEIKR	440 pM

Kindly consider the entry below.
Input: // Input: h0302-L2H1 (antibody, human IgG4 S228P, kappa, V domains shown, also called Ab9; huAb 0302-L2H1) VH: QVQLVQSGAEVKKPGSSVKVSCKASGYTFSDFNIHWVRQAPGQGLEWMGYINPYTDVTVYNEKFKGRVTITSDKSTSTAYMELSSLRSEDTAVYYCASYFDGTFDYALDYWGQGTLVTVSS VL: EIVVTQSPATLSLSPGERATLSCRASESVDNYGLSFMNWFQQKPGQAPRLLIYTASNLESGIPARFSGSGSRTDFTLTISSLEPEDFAVYYCQQSKELPWTFGQGTKVEIKR . Output its Kd only.
Output: 570 pM
